Each entry below carries its recorded t1/2.
test context: Rat Intraveneous, 20 mpk
Lab book: enter the figure in h, no units written.

Below: 3 compounds and their reported t1/2.
[[record]]
compound = "O=C(NO)C1(S(=O)(=O)c2ccc(Oc3ccc(C(F)(F)F)cc3)cc2)CCOCC1 [Example 379]"
quantity = "t1/2"
value_measured = 1.74

[[record]]
compound = "Cl.O=C(NO)C1(S(=O)(=O)c2ccc(Oc3ccc(OC(F)(F)F)cc3)cc2)CCNCC1 [Example 410]"
quantity = "t1/2"
value_measured = 1.78

[[record]]
compound = "C#CCN1CCC(C(=O)NO)(S(=O)(=O)c2ccc(Oc3ccc(C)c(C)c3)cc2)CC1.Cl [Example 43]"
quantity = "t1/2"
value_measured = 0.82


Now for another entry.
May I ask what t1/2 has been recorded for O=C(NO)C1(S(=O)(=O)c2ccc(Oc3ccc(Cl)cc3)cc2)CCOCC1 [Example 100] ?
1.50
